Kindly state t/2 diss (complex half-life) for each of the entries shown.
# testSystem: T1, recombinant NT-proBMP10 (22-312) (human, UniProt O95393 22-312)
# T1 construct: In-house construct; also called pro-peptide BMP10; BMP10(312)
# T1 sequence: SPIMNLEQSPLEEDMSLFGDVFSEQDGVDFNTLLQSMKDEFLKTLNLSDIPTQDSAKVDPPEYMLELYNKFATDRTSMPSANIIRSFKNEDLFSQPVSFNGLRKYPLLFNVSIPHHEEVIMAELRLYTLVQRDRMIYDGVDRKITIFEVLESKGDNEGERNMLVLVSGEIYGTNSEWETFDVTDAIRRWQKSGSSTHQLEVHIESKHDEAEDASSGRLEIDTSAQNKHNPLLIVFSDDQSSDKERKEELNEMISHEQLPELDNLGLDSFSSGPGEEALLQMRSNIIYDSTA
# testProtocol: SPR Biacore 8K, 37°C, mAb captured, BMP10(312) as analyte; ln(2)/60*kd

11C10 (antibody, V domains shown, Rabbit monoclonal IgG; also called clone 11C10; VH-3/VL-3) VH: QSLEESGGRLVTPGTALTVTCTVSGIDLSRNLMSWVRQAPGEGLEWIGSINFRNITWYASWAKGRFTISKTSTTVDLRISSPTTEDTATYFCARGVYVNSNGYYSLWGQGTPVTVSS VL: DIVMTQTPASVEAAVGGTVTINCQASQSVSNLLAWYQQKPGQPPKLLIYGASKLESGVPSRFKGSGSGTQFTLTINDLECDDAATYYCQTYWGGDGTSYLNPFGGGTEVVVK | 26 min
MAB<BMP10>rRb-13G6 (p10tf/p10tg)-IgG(SPA) (antibody, V domains shown, Recombinant rabbit monoclonal IgG; also called clone 13G6; VH-4/VL-4) VH: QSLEESGGRLVTPGTPLTLTCTVSGFSLSNYAMSWVRQAPGMGLEYIGYISASGNTYYASWVKGRFTISKTSTTVDLKMTSPTTEDTATYFCARGYSGWISGTWAVGQGTLVTVSS VL: AVLTQTPSPVSAAVGGTVNIGCQSSQSVVNNNRLSWFQQRPGQPPKQLIYRASTLASGVPSRFKGSGSGTQFTLTISDVQCDDAATYYCLGDYVSYSEAAFGGGTEVVVK | > 115 min
MAB<BMP10>rRb-9E7 HC12/LC7 (p10rw/p10rx)-IgG(SPA) (antibody, V domains shown, Recombinant rabbit monoclonal IgG; also called clone 9E7) VH: QSLEESGGGLVQPEGSLTLTCIASAFSFSSGYYMCWVRQAPGKGLEWIACIYAGSSGTTYYASWAKGRFTISKASSTTVTLLMTSLTAADTATYFCARGPGASGYRLGLWGPGTLVTVSS VL: DVVMTQTPASVSEPVGGTVTIKCQASEDIYRLLAWYQQKPGQPPKLLIYDASDLASGVPSRLSGSGSGTEYTLSISDLECADAATYYCQQGYYISGGDSFGGGTEVVVK | 21 min

Here is the next item to consider.
Give t/2 diss (complex half-life) for MAB<BMP10>rRb-11A5 HC6/LC3.2 (p10se/p10sf)-IgG(SPA) (antibody, V domains shown, Recombinant rabbit monoclonal IgG; also called clone 11A5; VH-2/VL-2) VH: QSVEESGGRLVTPGTPLTLTCTASGFSLSSYAMSWVRQAPGKGLQFIGYISGGGSTYYASWVKGRFTISKTSTTVDLKLTSPTTEDTATYFCARGYPGYISGTWAVGQGTLVTVSS VL: AVLTQTPSPVSAAVGGTVSISCQSSQSVVNNNRCSWFQQKPGQPPKQLIYSASTLASGVPSRFKGSGSGTQFTLTISDVQCDDAATYYCLGDYVSYGDSAFGGGTEVVVK 30 min
